target: T1, human MSLN-R3 protein (human, UniProt Q13421 487-598); assay: ELISA on coated antigen, antibody 100 nM
T1 construct: also called hMSLN-R3
T1 sequence (Q13421 495-606, form in doubt): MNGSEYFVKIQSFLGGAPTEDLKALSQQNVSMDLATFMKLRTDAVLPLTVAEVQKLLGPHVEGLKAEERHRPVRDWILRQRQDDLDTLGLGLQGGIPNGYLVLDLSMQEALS
propertyMeasured: OD450 (OD450)

1. F7.44.20-H5 (scFv, not shown: small tags and cut ends, also called S009-F7.44.20 humanized antibody VH1a + VL1) scFv: EVQLVQSGAEVKKPGASVKVSCKASGYTFTDYNMDWVRQAPGQGLEWMGDINPSTGGTIYNQKFQGRVTMTEDKSTSTVYMELSSLRSEDTAVYYCARRRIGTGYFDVWGQGTTVTVSSGGGGSGGGGSGGGGSEIVLTQSPDFQSVTPKEKVTITCSASSSVISSYLSWYQQKPDQSPKLLIYRTSNLASGVPSRFSGSGSGTDFTLTINSLEAEDAATYYCHQWSSFPYTFGGGTKVEIK: 2.27
2. F7.44.20-H11 (scFv, not shown: small tags and cut ends, also called S009-F7.44.20 humanized antibody VH2 + VL3) scFv: EVQLVQSGAEVKKPGASVKVSCKASGYTFTDYNMDWVRQAPGQGLEWMGDINPSTGGTIYNQKFNGRVTMTEDKSASTVYMELSSLRSEDTAVYYCARRRIGTGYFDVWGQGTTVTVSSGGGGSGGGGSGGGGSEIVLTQSPATLSLSPGERATLSCSASSSVISSYLSWYQQKPGQSPRLLIYRTSNLASGIPARFSGSGSGTDYTLTISSLEPEDFAVYYCHQWSSFPYTFGGGTKVEIK: 2.43
3. Tab111 (scFv, not shown: small tags and cut ends, also called YP218 VL-(G4S)3-VH-his antibody; positive control) scFv: DVVMTQTPASVSEPVGGTVTIKCQASQRISSYLSWYQQKPGQRPKLLIFGASTLASGVPSRFKGSGSGTEYTLTISDLECADAATYYCQSYAYFDSNNWHAFGGGTEVVVGGGGSGGGGSGGGGSQQQLEESGGGLVKPEGSLTLTCKASGFDLGFYFYACWVRQAPGKGLEWIACIYTAGSGSTYYASWAKGRFTISKASSTTVTLQMTSLAAADTATYFCARSTANTRSTYYLNLWGPGTLVTVSS: 2.1
4. F7.44.20-H1 (scFv, not shown: small tags and cut ends, also called S009-F7.44.20 humanized antibody VH1 + VL1) scFv: EVQLVQSGAEVKKPGASVKVSCKASGYTFTDYNMDWVRQAPGQGLEWMGDINPSTGGTIYNQKFNGRVTMTEDKSTSTVYMELSSLRSEDTAVYYCARRRIGTGYFDVWGQGTTVTVSSGGGGSGGGGSGGGGSEIVLTQSPDFQSVTPKEKVTITCSASSSVISSYLSWYQQKPDQSPKLLIYRTSNLASGVPSRFSGSGSGTDFTLTINSLEAEDAATYYCHQWSSFPYTFGGGTKVEIK: 2.3
5. F7.44.20-H10 (scFv, not shown: small tags and cut ends, also called S009-F7.44.20 humanized antibody VH2 + VL2) scFv: EVQLVQSGAEVKKPGASVKVSCKASGYTFTDYNMDWVRQAPGQGLEWMGDINPSTGGTIYNQKFNGRVTMTEDKSASTVYMELSSLRSEDTAVYYCARRRIGTGYFDVWGQGTTVTVSSGGGGSGGGGSGGGGSEIVLTQSPDFQSVTPKEKVTITCSASSSVISSYLSWYQQKPDQSPKLLIYRTSNLASGVPSRFSGSGSGTDYTLTINSLEAEDAATYYCHQWSSFPYTFGGGTKVEIK: 2.44
6. F7.44.20-H14 (scFv, not shown: small tags and cut ends, also called S009-F7.44.20 humanized antibody VH2a + VL2) scFv: EVQLVQSGAEVKKPGASVKVSCKASGYTFTDYNMDWVRQAPGQGLEWMGDINPSTGGTIYNQKFSGRVTMTEDKSASTVYMELSSLRSEDTAVYYCARRRIGTGYFDVWGQGTTVTVSSGGGGSGGGGSGGGGSEIVLTQSPDFQSVTPKEKVTITCSASSSVISSYLSWYQQKPDQSPKLLIYRTSNLASGVPSRFSGSGSGTDYTLTINSLEAEDAATYYCHQWSSFPYTFGGGTKVEIK: 1.9
7. F7.44.20-H2 (scFv, not shown: small tags and cut ends, also called S009-F7.44.20 humanized antibody VH1 + VL2) scFv: EVQLVQSGAEVKKPGASVKVSCKASGYTFTDYNMDWVRQAPGQGLEWMGDINPSTGGTIYNQKFNGRVTMTEDKSTSTVYMELSSLRSEDTAVYYCARRRIGTGYFDVWGQGTTVTVSSGGGGSGGGGSGGGGSEIVLTQSPDFQSVTPKEKVTITCSASSSVISSYLSWYQQKPDQSPKLLIYRTSNLASGVPSRFSGSGSGTDYTLTINSLEAEDAATYYCHQWSSFPYTFGGGTKVEIK: 2.35
8. F7.44.20-H3 (scFv, not shown: small tags and cut ends, also called S009-F7.44.20 humanized antibody VH1 + VL3) scFv: EVQLVQSGAEVKKPGASVKVSCKASGYTFTDYNMDWVRQAPGQGLEWMGDINPSTGGTIYNQKFNGRVTMTEDKSTSTVYMELSSLRSEDTAVYYCARRRIGTGYFDVWGQGTTVTVSSGGGGSGGGGSGGGGSEIVLTQSPATLSLSPGERATLSCSASSSVISSYLSWYQQKPGQSPRLLIYRTSNLASGIPARFSGSGSGTDYTLTISSLEPEDFAVYYCHQWSSFPYTFGGGTKVEIK: 2.21
9. F7.44.20-H6 (scFv, not shown: small tags and cut ends, also called S009-F7.44.20 humanized antibody VH1a + VL2) scFv: EVQLVQSGAEVKKPGASVKVSCKASGYTFTDYNMDWVRQAPGQGLEWMGDINPSTGGTIYNQKFQGRVTMTEDKSTSTVYMELSSLRSEDTAVYYCARRRIGTGYFDVWGQGTTVTVSSGGGGSGGGGSGGGGSEIVLTQSPDFQSVTPKEKVTITCSASSSVISSYLSWYQQKPDQSPKLLIYRTSNLASGVPSRFSGSGSGTDYTLTINSLEAEDAATYYCHQWSSFPYTFGGGTKVEIK: 2.12
10. Tab110 (scFv, not shown: small tags and cut ends, also called YP218 VH-(G4S)3-VL-his antibody; positive control) scFv: QQQLEESGGGLVKPEGSLTLTCKASGFDLGFYFYACWVRQAPGKGLEWIACIYTAGSGSTYYASWAKGRFTISKASSTTVTLQMTSLAAADTATYFCARSTANTRSTYYLNLWGPGTLVTVSSGGGGSGGGGSGGGGSDVVMTQTPASVSEPVGGTVTIKCQASQRISSYLSWYQQKPGQRPKLLIFGASTLASGVPSRFKGSGSGTEYTLTISDLECADAATYYCQSYAYFDSNNWHAFGGGTEVVV: 0.98
